- Experiment description: growth inhibition of non-replicating M. tuberculosis (AID 488890);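 further: plate controls were DMSO cells for no effect and high antibiotic wells for full effect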
- Test context: Mycobacterium tuberculosis non-replicating, at 25 µM, stronger effect = higher value
Hit rate of the full screen: of about 320,000 compounds, about 1,300 (0.41%) were called active. Another 3% or so got no clear call; they are omitted. The list is a sample of the results. Results with a measured potency or affinity are listed apart.
Property label: inhibition (%)

- Compound: "COCCn1c(C)cc(C(=O)COC(=O)c2cccc(O)c2)c1C"
  Property label: "inhibition"
  Observed result: -6.95
- Compound: "COc1ccccc1C(=O)Nc1c2c(nn1-c1cccc(C)c1C)CS(=O)(=O)C2"
  Property label: "inhibition"
  Observed result: 2.28
- Compound: "Cc1nc(CNS(=O)(=O)c2ccccc2F)cs1"
  Property label: "inhibition"
  Observed result: -17.8
- Compound: "CC(=O)OCCc1c2ccccc2c(CCCN(C)C)c2ccccc12"
  Property label: "inhibition"
  Observed result: 41.4
- Compound: "COC(=O)C1=C(N)Oc2cc(C)n(CC3CCCO3)c(=O)c2C1c1ccccc1 (stereo unspecified)"
  Property label: "inhibition"
  Observed result: 2.48
- Compound: "CCOc1ccc(CCNC(=O)COC(=O)Cn2cnc3ccccc3c2=O)cc1OCC"
  Property label: "inhibition"
  Observed result: 18.2

====

# inhibition listing for each entry below
- Experiment description: growth inhibition of non-replicating M. tuberculosis (AID 488890);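 further: plate controls were DMSO cells for no effect and high antibiotic wells for full effect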
- Test context: Mycobacterium tuberculosis non-replicating, at 25 µM, stronger effect = higher value
About 1,300 (0.41%) of roughly 320,000 compounds were called active. About 3% were inconclusive and are not listed. A selection follows. Results with a measured potency or affinity are listed apart.

- Compound: "CCn1c(CN2CCOCC2)nnc1SCC(=O)Nc1cccc(C)c1"
  inhibition (%): -3.97
- Compound: "O=C(COc1ccccc1Cl)Nc1ccc(Cl)cn1"
  inhibition (%): 29.8
- Compound: "CN(C)c1cc[n+](CC(=O)N2c3ccccc3Sc3ccccc32)cc1"
  inhibition (%): 6.94
- Compound: "Cn1c(SC2=CS(=O)(=O)c3ccccc32)nc2ccccc21"
  inhibition (%): 58
- Compound: "COc1ccc(/C(C)=N/OCC(=O)N=Nc2c(O)[nH]c3ccccc23)cc1"
  inhibition (%): -24.1
- Compound: "Cc1ccc(SCC(=O)OCC(=O)N2CCN(C(=O)c3ccco3)CC2)c(C)c1"
  inhibition (%): 15.3
- Compound: "Cc1ccc(C(=O)OCC(=O)Nc2ccc(Cl)cn2)s1"
  inhibition (%): 35.7
- Compound: "C=C1CCC[C@]2(C)C[C@H]3OC(=O)C(CNC(CC)CO)[C@H]3CC12 (some centres undefined)"
  inhibition (%): 34.3
- Compound: "Cc1ccccc1NC(=O)OCc1ccccc1"
  inhibition (%): 71.6
- Compound: "COC(=O)c1ccc(NC(=O)c2cccc(NC(=O)c3ccccc3)c2)cc1"
  inhibition (%): 32
- Compound: "COc1ccc(C(C)=O)cc1COC(=O)c1cc2ccccc2cc1O"
  inhibition (%): 2.94
- Compound: "O=C(COC(=O)c1ccc([N+](=O)[O-])cc1)Nc1ccc(Cl)cn1"
  inhibition (%): 34.3
- Compound: "CCOc1ccccc1OCC(=O)OCc1csc(CC(=O)Nc2ccccc2C)n1"
  inhibition (%): 37.2
- Compound: "O=C(OCc1cc([N+](=O)[O-])cc2c1OCOC2)c1ccc2ccccc2n1"
  inhibition (%): 74.8
- Compound: "Cc1ccccc1CCNC(=O)C1CC(O)CN1C(=O)Nc1ccccc1 (centres undefined)"
  inhibition (%): -7.09
- Compound: "O=P(O)(CCc1ccncc1)CN1CCCCC1"
  inhibition (%): -7.55
- Compound: "CC1NC(=S)N(C2CCCCC2)C1=O (centres undefined)"
  inhibition (%): 7.51
- Compound: "Cc1ccc(C(=O)N[C@H](C(=O)NC2CCCCCCC2)C(C)C)cc1"
  inhibition (%): -6.5
- Compound: "CCC(=O)Nc1ccc(Br)cn1"
  inhibition (%): 8.41
- Compound: "CCn1cc(C(=O)NC(=S)Nc2ccccc2[N+](=O)[O-])cn1"
  inhibition (%): 26.2
- Compound: "Nc1ccccc1C(=O)OCc1ccc([N+](=O)[O-])cc1"
  inhibition (%): 3.01
- Compound: "O=C(CCSc1ccccc1)NCc1cccnc1"
  inhibition (%): -1.43
- Compound: "CC(=O)Nc1ccc(NC(=O)CSc2nnc(CC(C)O)n2-c2ccccc2)cc1 (centres undefined)"
  inhibition (%): -7.33
- Compound: "O=C(O)C(Br)CBr (centres undefined)"
  inhibition (%): 20.6
